Give Peak area as % of total area of all glycoforms, 14,419 for every item shown.
System: lysozyme
Assay: ESI-MS of lysozyme glycoforms after incubation with D-ribose;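 further: lysozyme incubated with D-ribose, with or without anti-glycation agents, then separated by reversed-phase HPLC and analysed by electrospray mass spectrometry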
Details: lysozyme + D-ribose − 2H2O (14,419 Da); 37° C., 5 days
One number for each entry, in %.

{"Molecule": "Oc1cc(O)c2c(c1)O[C@H](c1ccc(O)c(O)c1)[C@H](O)C2 [(−)-Epicatechin]", "Measure Unit": "%", "Recorded Value": 2.6}
{"Molecule": "CN(C)[C@@H]1C(O)=C(C(N)=O)C(=O)[C@@]2(O)C(O)=C3C(=O)c4c(O)ccc(Cl)c4[C@@H](O)[C@H]3C[C@@H]12", "Measure Unit": "%", "Recorded Value": 3.0}
{"Molecule": "N=C(N)NN", "Measure Unit": "%", "Recorded Value": 2.6}

// batch mode: one Peak area as % of total area of all glycoforms, 14,419 value per listed entry
1. O=C1OC(CN2CCOCC2)CN1/N=C/c1ccc([N+](=O)[O-])o1 (stereo not shown)
2. O=C1C[C@@H](c2ccc(O)c(O)c2)Oc2cc(O)cc(O)c21
3. O=S(=O)(O)c1ccc(O)c2ncccc12 [8-Hydroxyquinoline-5-sulfonic acid]
4. C[C@](N)(Cc1ccc(O)c(O)c1)C(=O)O

1. 6.3
2. 5.0
3. 3.2
4. 1.5
